system: Enterococcus faecalis (EFAE 9217); test: MIC by agar dilution, EFAE 9217; format: cell-based; details: Enterococcus faecalis, Minimum Inhibitory Concentration, strain EFAE 9217
For each record, write down the corresponding MIC.
Dear colleague, please send the value followed by its unit.

Form field MIC, entry CCC(=S)NC[C@H]1CN(c2ccc(N3CCN(C(=O)[C@@H](O)Cc4ccccc4)CC3)c(F)c2)C(=O)O1 [EX 19] : 2 µg/mL

Form field MIC, entry CCC(=S)NC[C@H]1CN(c2ccc(N3CCN(C(=O)COC(=O)OCCOC)CC3)c(F)c2)C(=O)O1 [EX 7] : 2 µg/mL

Form field MIC, entry CCC(=S)NC[C@H]1CN(c2ccc(N3CCN(C(=O)[C@@H](OC(C)=O)c4ccccc4)CC3)c(F)c2)C(=O)O1 [EX 22] : 4 µg/mL

Form field MIC, entry CCC(=S)NC[C@H]1CN(c2ccc(N3CCN(C(=O)CS(C)(=O)=O)CC3)c(F)c2)C(=O)O1 [EX 3] : 0.5 µg/mL

Form field MIC, entry CCC(=S)NC[C@H]1CN(c2ccc(N3CCN(C(=O)C(CO)OC)CC3)c(F)c2)C(=O)O1 (stereo partly drawn) [EX 10] : 1 µg/mL

Form field MIC, entry CCC(=S)NC[C@H]1CN(c2ccc(N3CCN(C(=O)[C@@H](O)CO)CC3)c(F)c2)C(=O)O1 [EX 16] : 0.5 µg/mL

Form field MIC, entry CCC(=S)NC[C@H]1CN(c2ccc(N3CCN(C(=O)[C@H](O)CO)CC3)c(F)c2)C(=O)O1 [EX 17] : 0.5 µg/mL

Form field MIC, entry CCC(=S)NC[C@H]1CN(c2ccc(N3CCN(C(=O)C4(O)CC4)CC3)c(F)c2)C(=O)O1 [EX 14] : 1 µg/mL

Form field MIC, entry CCC(=S)NC[C@H]1CN(c2ccc(N3CCN(C(=O)[C@H](O)c4ccccc4)CC3)c(F)c2)C(=O)O1 [EX 21] : 2 µg/mL

* * *

System: Staphylococcus epidermidis (SEPI 30593)
Assay: MIC by agar dilution, SEPI 30593
Type: cell-based
Settings: Staphylococcus epidermidis, Minimum Inhibitory Concentration, strain SEPI 30593
Description: The oxazolidinone antibacterial agents of this invention have useful activity against a variety of organisms. The in vitro activity of compounds of this invention can be assessed by standard testing procedures such as the determination of minimum inhibitory concentration (MIC) by agar dilution as described in “Approved Standard. […]
For each record, write down the corresponding MIC.
Only the number, expressed in µg/mL, is required.

Form field MIC, entry CCC(=S)NC[C@H]1CN(c2ccc(N3CCN(C(=O)[C@@H](O)CO)CC3)c(F)c2)C(=O)O1 [EX 16] : 0.5

Form field MIC, entry CCC(=S)NC[C@H]1CN(c2ccc(N3CCN(C(=O)COC(=O)OCCOC)CC3)c(F)c2)C(=O)O1 [EX 7] : 1

Form field MIC, entry CCC(=S)NC[C@H]1CN(c2ccc(N3CCN(C(=O)CSC)CC3)c(F)c2)C(=O)O1 [EX 2] : 1

Form field MIC, entry CCC(=S)NC[C@H]1CN(c2ccc(N3CCN(C(=O)[C@@H](OC(C)=O)c4ccccc4)CC3)c(F)c2)C(=O)O1 [EX 22] : 4

* * *

test system: Streptococcus pyogens (SPYO 152); experiment: MIC by agar dilution, SPYO 152; format: cell-based; settings: Streptococcus, Minimum Inhibitory Concentration, strain SPYO 152
quantity_measured: MIC

Form field MIC, entry "CCC(=S)NC[C@H]1CN(c2ccc(N3CCN(C(=O)COc4ccccc4)CC3)c(F)c2)C(=O)O1" : 0.5 µg/mL

Form field MIC, entry "CCC(=S)NC[C@H]1CN(c2ccc(N3CCN(C(=O)CCO)CC3)c(F)c2)C(=O)O1" : 0.5 µg/mL

Form field MIC, entry "CCC(=S)NC[C@H]1CN(c2ccc(N3CCN(C(=O)[C@@H](O)COC)CC3)c(F)c2)C(=O)O1" : 0.5 µg/mL
